List of inhibition at 2 µM values.
molecular target: human Cereblon WT GST-tagged protein (Homo sapiens, UniProt Q96SW2); construct: purchased CISBIO 64BDCRBNPEH; assay: CRBN-binding affinity, HTRF (CEREBLON BINDING kit); conditions: read-out: Inhibition Rate at 2 µM (%)
Sequence (Q96SW2 whole entry): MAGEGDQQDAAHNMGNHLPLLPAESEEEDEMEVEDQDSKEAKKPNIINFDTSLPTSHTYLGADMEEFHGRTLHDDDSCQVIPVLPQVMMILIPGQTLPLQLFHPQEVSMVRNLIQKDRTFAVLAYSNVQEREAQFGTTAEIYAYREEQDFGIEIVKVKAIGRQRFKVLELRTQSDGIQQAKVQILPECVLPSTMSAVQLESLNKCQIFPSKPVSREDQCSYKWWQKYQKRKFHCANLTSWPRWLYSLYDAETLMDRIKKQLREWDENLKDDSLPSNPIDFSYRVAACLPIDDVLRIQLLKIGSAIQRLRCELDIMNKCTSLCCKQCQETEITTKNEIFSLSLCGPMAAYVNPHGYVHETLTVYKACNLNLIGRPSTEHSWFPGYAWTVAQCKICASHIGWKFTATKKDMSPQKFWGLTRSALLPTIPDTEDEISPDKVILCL
propertyName: inhibition at 2 µM

                                    molecule        propertyname      result
 0  O=C1CCC(N2Cc3c(CN4CCN(c5nccc(F)c5F)CC4)cccc3C2=S)C(=O)N1 (centres unmarked)  inhibition at 2 µM  80 to 100%
 1  O=C1CCC(N2Cc3c(CN4CCN(c5ncnc6ccsc56)CC4)cccc3C2=S)C(=O)N1 (centres unmarked)  inhibition at 2 µM  80 to 100%
 2  O=C1CCC(N2Cc3cc(CN4CCN(c5c(Cl)cncc5Cl)CC4)ccc3C2=S)C(=O)N1 (centres unmarked)  inhibition at 2 µM  80 to 100%
 3  Cc1nc(N2CCN(Cc3cccc4c3CN(C3CCC(=O)NC3=O)C4=S)CC2)c2c(-c3ccccc3)csc2n1 (centres unmarked)  inhibition at 2 µM  80 to 100%
 4  Cc1cc(C2=CCN(Cc3cccc4c3CN(C3CCC(=O)NC3=O)C4=S)CC2)cs1 (centres unmarked)  inhibition at 2 µM   60 to 80%
 5  O=C1CCC(N2Cc3cc(CN4CCN(c5ncnc6scc(-c7ccccc7)c56)CC4)ccc3C2=S)C(=O)N1 (centres unmarked)  inhibition at 2 µM  80 to 100%
 6  CC1(C)CCC(CN2C3CC2CN(Cc2ccc4c(c2)CN(C2CCC(=O)NC2=O)C4=S)C3)=C(c2ccc(Cl)cc2)C1 (centres unmarked)  inhibition at 2 µM  80 to 100%
 7  O=C1CCC(N2Cc3c(CN4CC=C(c5ncnc6sc7c(c56)CCCC7)CC4)cccc3C2=S)C(=O)N1 (centres unmarked)  inhibition at 2 µM  80 to 100%
 8  Cc1nc(C2CCN(Cc3cccc4c3CN(C3CCC(=O)NC3=O)C4=S)CC2)c2c(-c3ccccc3)csc2n1 (centres unmarked)  inhibition at 2 µM  80 to 100%
 9  O=C1CCC(N2Cc3c(CN4CCN(c5ccc(F)cn5)CC4)cccc3C2=S)C(=O)N1 (centres unmarked)  inhibition at 2 µM  80 to 100%
10  O=C1CCC(N2Cc3c(CN4CCC(c5n[nH]c6cc(F)ccc56)CC4)cccc3C2=S)C(=O)N1 (centres unmarked)  inhibition at 2 µM  80 to 100%
11  O=C1CCC(N2Cc3cc(CN4CCC(C5CCOc6cc(F)ccc65)CC4)ccc3C2=S)C(=O)N1 (centres unmarked)  inhibition at 2 µM  80 to 100%
12  O=C1CCC(N2Cc3cc(CN4CCN(c5ccc(C(F)(F)F)cc5)CC4)ccc3C2=S)C(=O)N1 (centres unmarked)  inhibition at 2 µM  80 to 100%
13  O=C1CCC(N2Cc3cc(CN4CC=C(c5cccc6c(F)cccc56)CC4)ccc3C2=S)C(=O)N1 (centres unmarked)  inhibition at 2 µM  80 to 100%
14  O=C1CCC(N2Cc3c(CN4CCC(c5ncc6ccsc6n5)CC4)cccc3C2=S)C(=O)N1 (centres unmarked)  inhibition at 2 µM  80 to 100%
15  Cc1cscc1N1CCN(Cc2cccc3c2CN(C2CCC(=O)NC2=O)C3=S)CC1 (centres unmarked)  inhibition at 2 µM  80 to 100%
16  Cc1cc2c(N3CCN(Cc4cccc5c4CN(C4CCC(=O)NC4=O)C5=S)CC3)ncnc2s1 (centres unmarked)  inhibition at 2 µM  80 to 100%
17  O=C1CCC(N2Cc3cc(CN4CCN(c5cccnc5)CC4)ccc3C2=S)C(=O)N1 (centres unmarked)  inhibition at 2 µM  80 to 100%
18  O=C1CCC(N2Cc3cc(CN4CCN(c5cc(Cl)ccn5)CC4)ccc3C2=S)C(=O)N1 (centres unmarked)  inhibition at 2 µM  80 to 100%
19  O=C1CCC(N2Cc3cc(CN4CCN(c5nccc(I)c5F)CC4)ccc3C2=S)C(=O)N1 (centres unmarked)  inhibition at 2 µM  80 to 100%
20  O=C1CCC(N2Cc3cc(CN4CCN(c5ccncc5Cl)CC4)ccc3C2=S)C(=O)N1 (centres unmarked)  inhibition at 2 µM  80 to 100%
21  CC(C)c1cc2c(N3CCN(Cc4ccc5c(c4)CN(C4CCC(=O)NC4=O)C5=S)CC3)ncnc2s1 (centres unmarked)  inhibition at 2 µM  80 to 100%
22  O=C1CCC(N2Cc3cc(CN4CCC(c5ccnc6cc(F)ccc56)CC4)ccc3C2=S)C(=O)N1 (centres unmarked)  inhibition at 2 µM   60 to 80%
23  Cc1sc2ncnc(C3=CCN(Cc4cccc5c4CN(C4CCC(=O)NC4=O)C5=S)CC3)c2c1C (centres unmarked)  inhibition at 2 µM   60 to 80%
24  O=C1CCC(N2Cc3cc(CN4CCN(c5nccc(Cl)c5Br)CC4)ccc3C2=S)C(=O)N1 (centres unmarked)  inhibition at 2 µM  80 to 100%
25  O=C1CCC(N2Cc3c(CN4CCN(c5ccsc5)CC4)cccc3C2=S)C(=O)N1 (centres unmarked)  inhibition at 2 µM   60 to 80%
26  O=C1CCC(N2Cc3cc(CN4CCN(c5nccc(F)c5F)CC4)ccc3C2=S)C(=O)N1 (centres unmarked)  inhibition at 2 µM  80 to 100%
27  Cc1cc2c(N3CCN(Cc4ccc5c(c4)CN(C4CCC(=O)NC4=O)C5=S)CC3)ncnc2s1 (centres unmarked)  inhibition at 2 µM  80 to 100%
28  Cc1nc(C2CCN(Cc3ccc4c(c3)CN(C3CCC(=O)NC3=O)C4=S)CC2)c2ccsc2n1 (centres unmarked)  inhibition at 2 µM  80 to 100%
29  O=C1CCC(N2Cc3cc(CN4CCCN(c5cccc(Cl)c5Cl)CC4)ccc3C2=S)C(=O)N1 (centres unmarked)  inhibition at 2 µM  80 to 100%
30  O=C1CCC(N2Cc3c(CN4CCN(c5ccc(F)cc5)CC4)cccc3C2=S)C(=O)N1 (centres unmarked)  inhibition at 2 µM  80 to 100%
31  O=C1CCC(N2Cc3c(CN4CCC(c5cccc(Br)c5)CC4)cccc3C2=S)C(=O)N1 (centres unmarked)  inhibition at 2 µM   60 to 80%
